Taken from the supplement of paper PMC9170038.

System: MS2 coat protein
Test Name: apparent KD of MS2 coat protein; designed switch direction (-1 OFF switch, 1 ON switch): -1; higher = weaker reporter binding
Measurement Parameters: input ligand: none
Outcome label depends on apparent KD of MS2 coat protein relative to 50 nM: at/above gives yes, below gives no.

Past entries and their recorded results:
{"columns": ["Ordered Residues", "Experimental Target", "Answer Label"],
 "data": [
  ["AGUAUGUCAGGAUAUCUCGGGUAGCCCACAAGGACUACCGAAGAGAAGGGACAUGAGGAUCACCCAUGUACCAU [EX4 B.24] (Eterna round: R97, puzzle: Exclusion 4)", "MS2 coat protein", "no"],
  ["UAAGUUUACCGAGGAUAUGGUCCAUAAUUUUUACCAGAAGGCGGACUCAACAUGAGGAUCACCCAUGUAUAAAGGGUAUUUGGU [JR_ExcNG1_Sub046] (Eterna round: R96, puzzle: Exclusion NG 1)", "MS2 coat protein", "no"],
  ["AACGAUACGCUCAUAAGAACAUGAGGAUCACCCAUGUGUGGUGAGGAUAUCCACCCAGAGGGAAAGGAGAAGGUACCAGUGGAC [Orsoenbere] (Eterna round: R96, puzzle: Exclusion NG 3)", "MS2 coat protein", "yes"],
  ["ACGCAUUGCCUUUGGUAGUGCGUAACAUGAGGAUCACCCAUGUAGGAUAUGGUAGGCUUUGCUUACCAGAAGGACAUUAUAAAG [Mat - Exclusion NG 3 - Mod of JL - D10] (Eterna round: R96, puzzle: Exclusion NG 3)", "MS2 coat protein", "no"],
  ["UGCUACGGAGGAUAUACAUGAGGAUCACCCAUGUGAUAGAUUAUGCCGAGAGGCUAGUGUAGAAGGCCGUAGCU [jl-ex3-4.14 jl mod] (Eterna round: R97, puzzle: Exclusion 3)", "MS2 coat protein", "yes"]
]}

Now consider the entry below.
Answer whether apparent KD of MS2 coat protein of GGCAUGCAAGGAUAUACUUACGGUGGUGUUCGAAGCUUUCUACUUGAGGAUCACCCAAGUAGAAGGUGCAUGCC [jl-ex2.4.74 ViennaUCT mod] (Eterna round: R97, puzzle: Exclusion 2) is greater than or equal to 50 nM.
no
